# target-or-system: EglN2 (Homo sapiens, UniProt Q96KS0)
# Sequence (Q96KS0 whole entry): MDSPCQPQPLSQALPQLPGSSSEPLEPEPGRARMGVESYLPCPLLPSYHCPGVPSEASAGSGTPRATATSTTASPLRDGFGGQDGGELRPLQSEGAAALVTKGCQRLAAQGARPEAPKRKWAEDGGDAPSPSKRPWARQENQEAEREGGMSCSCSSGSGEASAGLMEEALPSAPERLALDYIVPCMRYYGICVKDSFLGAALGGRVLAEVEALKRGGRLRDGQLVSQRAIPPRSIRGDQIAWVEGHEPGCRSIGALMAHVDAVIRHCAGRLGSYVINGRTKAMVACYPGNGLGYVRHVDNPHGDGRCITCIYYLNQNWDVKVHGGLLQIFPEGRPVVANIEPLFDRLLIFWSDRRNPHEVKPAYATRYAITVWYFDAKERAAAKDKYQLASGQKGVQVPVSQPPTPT
quantity: IC50

input: Retrieve IC50 measured for O=C(O)CC[C@@H](O)C(=O)O [R-2HG, R-2-hydroxyglutarate] and print it.
output: > 5 mM

###

quantity: IC50

input: Recall the reported IC50 of O=C(O)CC[C@@H](O)C(=O)O [R-2HG, R-2-hydroxyglutarate] when tested on EglN3 (Homo sapiens, UniProt Q9H6Z9).
Sequence (Q9H6Z9 whole entry): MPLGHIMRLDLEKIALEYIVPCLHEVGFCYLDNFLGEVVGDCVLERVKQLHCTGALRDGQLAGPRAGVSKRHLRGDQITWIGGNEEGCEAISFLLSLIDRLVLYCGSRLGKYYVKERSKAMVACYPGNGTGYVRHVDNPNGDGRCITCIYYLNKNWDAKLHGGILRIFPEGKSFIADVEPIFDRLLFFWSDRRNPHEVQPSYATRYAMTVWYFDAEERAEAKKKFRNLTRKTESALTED
output: > 5 mM
